# Tested on: NCI-H23 lung
# protocol summary: NCI tumour cell line growth inhibition, 48 h; in the data active = GI50 below about 0.43 µM; inactive = the rest
Return exactly one item of 1 for active, 0 for inactive

These solved cases illustrate the format of a correct answer.
| compound | class name |
| --- | --- |
| Cc1ccc(NC2=N[C@]34CC(=O)CC[C@]3(C)[C@H]3CC[C@]5(C)C(=O)CC[C@H]5[C@@H]3C[C@@H]4S2)c(C)c1 | 0 |
| C[C@]12CCC(=O)CC1CC[C@@H]1C2CC[C@@]2(C)C1CC[C@@H]2OC(=O)CC[Se][Se]CCC(=O)O[C@H]1CCC2[C@@H]3CCC4CC(=O)CC[C@]4(C)C3CC[C@@]21C (stereo partly drawn) | 0 |
| OCc1ccc(N(Cc2ccc(F)cc2)CC2CC2)cc1Cl | 0 |
| Cn1cc(-c2ccc(-c3cn(C)c4ccc(Cl)cc34)[nH]2)c2cc(Cl)ccc21 | 0 |
| O=C(N/N=C(\CN1CCN(c2cc3[nH]cc(C(=O)O)c(=O)c3cc2F)CC1)c1ccc(Cl)cc1)c1ccncc1 | 0 |

Qu. I would be grateful if you could indicate the recorded call for Oc1cccc(-c2nc(-c3n[nH]c(=S)n3-c3ccccc3)cc3c2[nH]c2ccccc23)c1 .
Ans. 0

Qu. I would be grateful if you could indicate the recorded call for CCCCCCCC(=O)SCC/C=C/[C@@H]1CC(=O)NCc2cccc(n2)CN(Cc2ccc3ccccc3c2)CC(=O)N[C@@H](C(C)C)C(=O)O1 .
Ans. 0

Qu. I would be grateful if you could indicate the recorded call for Cc1cc(Nc2ccc3c(c2)OCO3)c2cc3c(cc2n1)OCO3 .
Ans. 0

Qu. I would be grateful if you could indicate the recorded call for COc1ccc2c(c1)NC(=O)CN2c1nc(NC2CC2)nc2ccccc12 .
Ans. 1

Qu. I would be grateful if you could indicate the recorded call for CC1(C)CC[C@]2(C(N)=O)CC[C@]3(C)C(=CC[C@@H]4[C@@]5(C)C/C(=C/c6cccnc6)C(=O)C(C)(C)[C@@H]5CC[C@]43C)[C@@H]2C1 .
Ans. 0

Qu. I would be grateful if you could indicate the recorded call for O=CN/N=C/c1ccc(Cl)c([N+](=O)[O-])c1 .
Ans. 1

Qu. I would be grateful if you could indicate the recorded call for CC(C)OC(=O)c1cc(NS(=O)(=O)c2ccc3ccccc3c2)cc(C(=O)OC(C)C)c1 .
Ans. 0

Qu. I would be grateful if you could indicate the recorded call for CCOC(=O)c1nnn(-c2no[n+]([O-])c2-c2ccc(OC)cc2)c1COc1cccc2cccnc12 .
Ans. 0

###

# Tested on: BT-549 breast
# protocol summary: NCI tumour cell line growth inhibition, 48 h
quantity measured: GI50

Qu. What value of GI50 has been recorded for this entry: CCCCCCCC(=O)SCC/C=C/[C@@H]1CC(=O)NCc2cccc(n2)CN(Cc2ccc3ccccc3c2)CC(=O)N[C@@H](C(C)C)C(=O)O1
Ans. > 100 µM

Qu. What value of GI50 has been recorded for this entry: CC(=O)N1CCC(Nc2cc(C(=O)NC[C@H](O)CN3CCc4ccccc4C3)ncn2)CC1
Ans. > 100 µM

Qu. What value of GI50 has been recorded for this entry: C[C@]12CCC(=O)CC1CC[C@@H]1C2CC[C@@]2(C)C1CC[C@@H]2OC(=O)CC[Se][Se]CCC(=O)O[C@H]1CCC2[C@@H]3CCC4CC(=O)CC[C@]4(C)C3CC[C@@]21C (some centres undefined)
Ans. 2.1 µM

Qu. What value of GI50 has been recorded for this entry: CN(C)CCCn1c2c(c3ccc(-c4ccn[nH]4)cc3c1=O)C(=O)c1ccccc1-2
Ans. 3.1 µM

###

# Test system: UACC-62 melanoma
# protocol summary: NCI tumour cell line growth inhibition, 48 h
Binary call on TGI: Yes from 30 µM upward, No beneath that.

These solved cases illustrate the format of a correct answer.
| compound | class name |
| --- | --- |
| CC(=O)NC(CC(C)C)C(=O)NC(CC(C)C)C(=O)NC(C=O)CCCN=C(N)N (centres undefined) | Yes |
| CSC(=NC#N)S/C=C/C(=O)c1ccc(Cl)cc1 | Yes |
| CC(C)=CC(=O)OC1C(CO)OC(Oc2cc(O)c3c(=O)cc(-c4ccc(O)c(O)c4)oc3c2)C(OC2OC(C)C(O)C(O)C2O)C1O (centres undefined) | Yes |
| O=C(/C=C/c1ccc(Br)cc1)c1ccc(NCc2nc3ccccc3[nH]2)cc1 | Yes |
| CN1CCN(C(=S)N(C(=O)c2ccco2)C2CCCCC2)CC1 | Yes |

Qu. Record Cc1ccc(NC2=N[C@]34CC(=O)CC[C@]3(C)[C@H]3CC[C@]5(C)C(=O)CC[C@H]5[C@@H]3C[C@@H]4S2)c(C)c1 ; criterion: TGI no lower than 30 µM. Met?
Ans. No

Qu. Record CCCN(CCC)c1ccc(CO)c(Cl)c1 ; criterion: TGI no lower than 30 µM. Met?
Ans. No

Qu. Record CC1=NN(C(=O)CC(=O)Nc2ccccc2)C(=O)C1N=Nc1ccc(C(=O)O)cc1 (centres undefined) ; criterion: TGI no lower than 30 µM. Met?
Ans. Yes

Qu. Record NS(=O)(=O)c1nnc(NS(=O)(=O)c2ccc(F)cc2)s1 ; criterion: TGI no lower than 30 µM. Met?
Ans. Yes

Qu. Record [N-]=[N+]=NC1C2CC3C4CC5CC3[C@H](C2)C(C5)C41 (some centres undefined) ; criterion: TGI no lower than 30 µM. Met?
Ans. Yes

Qu. Record S=C(Nc1ccccc1)Nc1ccccc1SC(/C=C/NNC1=NC(c2ccccc2)C(c2ccccc2)=NN1)c1ccccc1 (centres undefined) ; criterion: TGI no lower than 30 µM. Met?
Ans. Yes

Qu. Record CCOC(=O)c1ccc(NC(=O)O/N=C(/Cl)CC)cc1 ; criterion: TGI no lower than 30 µM. Met?
Ans. Yes

Qu. Record Cc1cc(Cc2cc(Cc3cc(C)cc(C(C)(C)C)c3O)c(C)cc2C)c(O)c(C(C)(C)C)c1 ; criterion: TGI no lower than 30 µM. Met?
Ans. No

Qu. Record C=C1CCc2ccccc2C1=O ; criterion: TGI no lower than 30 µM. Met?
Ans. Yes

Qu. Record N#Cc1c(Br)n(C2OC(CO)C(O)C2O)c2ncn3ccnc3c12 (centres undefined) ; criterion: TGI no lower than 30 µM. Met?
Ans. Yes

Qu. Record CC(CC(=O)O)(CC(=O)O)c1ccccc1 ; criterion: TGI no lower than 30 µM. Met?
Ans. Yes

Qu. Record CC(=O)NNc1nc(C)c(C(=O)/C=C/c2cccc([N+](=O)[O-])c2)s1 ; criterion: TGI no lower than 30 µM. Met?
Ans. Yes

Qu. Record COc1ccc2c(c1)[n+]([O-])c(C#N)c(NC(=O)c1cccs1)[n+]2[O-] ; criterion: TGI no lower than 30 µM. Met?
Ans. Yes

Qu. Record O=C(N/N=C/c1cc(Cl)cc(Cl)c1[O-])c1ccccc1O.O=C(N/N=C/c1cc(Cl)cc(Cl)c1[O-])c1ccccc1O.[Cl-].[Fe+3] ; criterion: TGI no lower than 30 µM. Met?
Ans. Yes

Qu. Record CN1c2ccccc2NC(CC(=O)O)C2CC=CN21 (centres undefined) ; criterion: TGI no lower than 30 µM. Met?
Ans. Yes

Qu. Record O=C(CCCCN1CCOCC1)Nc1ccc(Cn2nnc3c2C(=O)c2nnn(Cc4ccc(NC(=O)CCCCN5CCOCC5)cc4)c2C3=O)cc1 ; criterion: TGI no lower than 30 µM. Met?
Ans. No

Qu. Record O=c1ccc2nc(C(F)(F)F)nn(-c3ccccc3)c-2c1 ; criterion: TGI no lower than 30 µM. Met?
Ans. No

Qu. Record Cc1ccc(S(=O)(=O)N(CCN2C(=O)c3ccccc3C2=O)c2cc3c4c(c2)Oc2cc(N(CCN5C(=O)c6ccccc6C5=O)S(=O)(=O)c5ccc(C)cc5)cc5c2C4(C)c2c(cc(N(CCN4C(=O)c6ccccc6C4=O)S(=O)(=O)c4ccc(C)cc4)cc2O5)O3)cc1 ; criterion: TGI no lower than 30 µM. Met?
Ans. Yes

Qu. Record COC(=O)C(Cc1ccc2c(c1)CCCC2)Cc1cc2c(cc1C(O)OC)CCC2 (centres undefined) ; criterion: TGI no lower than 30 µM. Met?
Ans. Yes

Qu. Record CCCCCCCC(=O)SCC/C=C/[C@@H]1CC(=O)NCc2cccc(n2)CN(Cc2ccc3ccccc3c2)CC(=O)N[C@@H](C(C)C)C(=O)O1 ; criterion: TGI no lower than 30 µM. Met?
Ans. Yes

Qu. Record c1ccc([Si](OCCN2CC2)(c2ccccc2)c2ccccc2)cc1 ; criterion: TGI no lower than 30 µM. Met?
Ans. No

###

# Tested on: 786-0 renal
# protocol summary: NCI tumour cell line growth inhibition, 48 h
quantity measured: GI50

Qu. What value of GI50 has been recorded for this entry: COc1ccc2c(c1)[n+]([O-])c(C#N)c(NC(=O)c1cccs1)[n+]2[O-]
Ans. > 100 µM

Qu. What value of GI50 has been recorded for this entry: C=C1C(=O)O[C@H]2[C@H]1CC/C(COC(=O)/C=C\C(=O)NCc1ccc(Cn3c(=O)sn(CCCI)c3=O)cc1)=C\CC[C@@]1(C)O[C@@H]21
Ans. 0.77 µM

Qu. What value of GI50 has been recorded for this entry: O=C(Nc1cccc(Cl)c1)Nc1nccs1
Ans. 26.6 µM

Qu. What value of GI50 has been recorded for this entry: O=c1cc(NCC(O)CN2CCOCC2)n(Cc2ccccc2)c(=O)n1Cc1ccccc1 (stereo not given)
Ans. 41.4 µM

Qu. What value of GI50 has been recorded for this entry: C(=C1c2ccccc2-c2ccccc21)c1ccncc1
Ans. 8.17 µM
